Overview of reported composite z-score across a group of compounds:
assay: compounds binding Alexa647 anti-His antibody – biochemical, small-molecule microarray, 635 nm fluorescence, artefact control for SMM control protein annotation, primary screen (AID 1128); conditions: higher = more signal;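 further: score merges feature fluorescence with signal-to-noise for each printed compound spot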
Lab note: record the figure alone, no unit after it.

The examples below pair each entry with its known result.
{"columns": ["compound", "composite z-score"],
 "data": [
  ["O=C(CS)NCCCCCNC(=O)[C@@H]1C[C@@H]2C(=O)N3CCC[C@H]3C(=O)N2[C@@H]1c1ccc(O)cc1", 3.22],
  ["NCCCCCCNC(=O)[C@H]1C[C@H]2C(=O)N3CCC[C@H]3C(=O)N2[C@H]1c1ccc(O)cc1", 2.79]
]}

Field request: composite z-score | item: C=CCC(OC(C)=O)[C@@H]1[C@@H](N(Cc2cc3ccccc3o2)C(=O)Cc2ccc(OC)cc2)c2cc(OCCCO)ccc2N1C(=O)c1ccc(-c2ccccc2)cc1 (some centres undefined) -0.316

Field request: composite z-score | item: COC(=O)[C@]1(Cc2ccccc2CN=[N+]=[N-])N=C(c2ccc(OCCCO)cc2)O[C@@H]1c1ccccc1CN=[N+]=[N-] 1.12
